Reference for the values: patent US10604489B2

Biological target: human μ opioid receptor (Homo sapiens (Human))
Assay: Functional activity ([35S]GTPγS binding)
Assay type: biochemical
Conditions: [35S]GTPγS 0.080 nM, CHO cell membranes, 60 min at 30° C., filtration
Procedure: The [^35S]GTPγS assay measures the functional properties of a compound by quantifying the level of G-protein activation following agonist binding in studies using stably transfected cells, and is considered to be a measure of the efficacy of a compound. […] Nonspecific binding was measured by inclusion of 10 μM GTPγS. […] The filters were washed three times with cold 50 mM Tris-HCl, pH 7.5, and were counted in 2 mL of Ecoscint scintillation fluid.
pEC50: −log10 of the molar value. Structures can show the parent of a compound that is named as a salt.
Listed here: items and their measured pEC50.

MOLECULE	pEC50
COC1(c2cccc(C(N)=O)c2)C2CCCC1CN(Cc1n[nH]c3ccccc13)C2 (stereo not shown) [Compound 154, hydrochloride]	> 8.00
COC1(c2cccc(C(N)=O)c2)C2CCCC1CN(C)C2.Cl (stereo not shown) [Compound 23, hydrochloride]	> 8.00
COC1(c2ccc(C(N)=O)s2)C2CCCC1CN(CCN1CCNC1=O)C2 (stereo not shown) [Compound 95]	< 7.12

Given the entry COC1(c2ccnc(C(N)=O)c2)C2CCCC1CN(Cc1cn(C)cn1)C2.Cl (stereo not shown) [Compound 123, hydrochloride] , what pEC50 was observed with human μ opioid receptor (Homo sapiens (Human))?
7.12 to 8.00

Next molecule up: COC1(c2ccnc(C(N)=O)c2)C2CCCC1CN(CC1(O)Cc3ccccc3C1)C2 (stereo not shown) [Compound 73, hydrochloride]
> 8.00

Next molecule up: COC1(c2ccnc(C(N)=O)c2)C2CCCC1CN(Cc1c[nH]c3ccccc13)C2.Cl (stereo not shown) [Compound 126, hydrochloride]
> 8.00

Next molecule up: COC1(c2cccc(C(N)=O)c2)C2CCCC1CN(C[C@H]1[C@@H]3COC[C@@H]31)C2.Cl (stereo partly shown) [Compound 176]
> 8.00

---

Listed here: items and their measured pKi.
Biological target: μ-receptor (Homo sapiens (Human))
Test: Receptor binding, competitive displacement of [3H]DAMGO
Conditions: 0.25 nM [3H]DAMGO, CHO cell membrane protein, 60 min at 25° C.
pKi: −log10 of the molar value. Where a name gives a salt, the structure may show the parent alone.

COMPOUND	MEASUREMENT
COC[C@@H](C)N1CC2CCCC(C1)C2(OC)c1ccnc(C(N)=O)c1 (single isomer, unassigned) [Compound 62, hydrochloride]	< 8.30
COC1(c2ccnc(C(N)=O)c2)C2CCCC1CN([C@H]1CC[C@@H]1C)C2 (single isomer, unassigned) [Compound 144, hydrochloride]	> 9.00
COC1(c2ccnc(C(N)=O)c2)C2CCCC1CN([C@@H]1CCOC1)C2 (stereo partly drawn) [Compound 78, hydrochloride]	8.30 to 9.00
COC1(c2cccc(C(N)=O)c2)C2CCCC1CN([C@H]1CCCOC1)C2.Cl (single isomer, unassigned) [Compound 140, hydrochloride]	> 9.00
COC1(c2cccc(C(N)=O)c2)C2CCCC1CN(C)C2.Cl (stereo not drawn) [Compound 23, hydrochloride]	> 9.00
CCCCN1CC2CCCC(C1)C2(OC)c1cccc(C(N)=O)c1 (stereo not drawn) [Compound 29, hydrochloride]	> 9.00
COC1(c2ccnc(C(N)=O)c2)C2CCCC1CNC2.Cl (stereo not drawn) [Compound 70, hydrochloride]	8.30 to 9.00
COC1(c2ccnc(C(N)=O)c2)C2CCCC1CN(Cc1cncn1C)C2 (stereo not drawn) [Compound 121, hydrochloride]	8.30 to 9.00

I am curious: what pKi value has been reported for COC1(c2ccnc(C(N)=O)c2)C2CCCC1CN(Cc1c[nH]c3ccccc13)C2.Cl (stereo not drawn) [Compound 126, hydrochloride] ?
> 9.00

Next compound up: COC1(c2ccnc(C(N)=O)c2)C2CCCC1CN(Cc1ccccn1)C2 (stereo not drawn) [Compound 67, dihydrochloride]
8.30 to 9.00

Next compound up: CCC[C@@H](C)N1CC2CCCC(C1)C2(OC)c1ccnc(C(N)=O)c1 (single isomer, unassigned) [Compound 137, hydrochloride]
8.30 to 9.00
